target: DPP8 (Homo sapiens (Human), UniProt Q6V1X1); experiment: DPP8 enzyme inhibition, IC50 measurement (Ala-Pro-pNA release); format: biochemical; conditions: Table 3; mean ± SD (n = 3); read-out: DPP8 IC50 ± SD
Sequence (Q6V1X1 whole entry): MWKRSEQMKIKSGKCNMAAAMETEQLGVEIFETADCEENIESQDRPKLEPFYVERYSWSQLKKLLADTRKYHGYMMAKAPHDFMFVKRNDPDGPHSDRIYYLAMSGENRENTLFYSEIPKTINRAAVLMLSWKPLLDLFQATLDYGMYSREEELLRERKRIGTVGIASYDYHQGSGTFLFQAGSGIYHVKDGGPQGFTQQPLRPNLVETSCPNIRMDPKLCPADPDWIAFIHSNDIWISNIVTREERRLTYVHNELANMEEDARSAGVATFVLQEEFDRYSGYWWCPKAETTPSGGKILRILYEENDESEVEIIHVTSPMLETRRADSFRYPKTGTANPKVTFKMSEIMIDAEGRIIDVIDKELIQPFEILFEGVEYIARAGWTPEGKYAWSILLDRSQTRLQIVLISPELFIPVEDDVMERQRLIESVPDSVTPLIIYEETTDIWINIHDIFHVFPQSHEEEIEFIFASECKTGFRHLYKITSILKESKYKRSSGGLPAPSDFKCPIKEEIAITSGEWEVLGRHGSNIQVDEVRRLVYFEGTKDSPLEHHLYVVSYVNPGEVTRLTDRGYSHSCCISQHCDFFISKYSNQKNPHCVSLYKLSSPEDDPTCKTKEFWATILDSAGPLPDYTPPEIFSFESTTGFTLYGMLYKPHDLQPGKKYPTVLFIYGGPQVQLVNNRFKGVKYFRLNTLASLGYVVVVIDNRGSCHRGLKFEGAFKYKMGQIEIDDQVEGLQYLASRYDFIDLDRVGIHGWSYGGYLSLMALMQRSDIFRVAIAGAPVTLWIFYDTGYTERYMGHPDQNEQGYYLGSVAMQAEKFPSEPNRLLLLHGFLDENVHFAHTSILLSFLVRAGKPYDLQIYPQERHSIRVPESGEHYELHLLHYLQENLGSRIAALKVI
pIC50: −log10 of the molar value.
Met means recorded pIC50 is 6 or above; Not met means it is below 6.

Query :: Decide: pIC50 of O=C(NC12CC3CC(CC(C3)C1)C2)NC12CC3CC(CC(NCC(=O)N4Cc5ccccc5C4)(C3)C1)C2 >= 6?
Result :: Met

Query :: Decide: pIC50 of Cl.O=C(NCc1ccccc1)NC12CC3CC(CC(NCC(=O)N4Cc5ccccc5C4)(C3)C1)C2 [Compound 42, hydrochloride] >= 6?
Result :: Met

Query :: Decide: pIC50 of N#Cc1ccc(CCC(=O)NC23CC4CC(CC(NCC(=O)N5Cc6ccccc6C5)(C4)C2)C3)cc1 >= 6?
Result :: Met

Query :: Decide: pIC50 of O=C(CNC12CC3CC(C1)CC(NCc1ccc(-c4ccccc4)cc1)(C3)C2)N1Cc2ccccc2C1 >= 6?
Result :: Not met

Query :: Decide: pIC50 of O=C(NC(c1ccccc1)c1ccccc1)OC12CC3CC(CC(NCC(=O)N4Cc5ccccc5C4)(C3)C1)C2 >= 6?
Result :: Met

Query :: Decide: pIC50 of O=C(NCCCCO)OC12CC3CC(CC(NCC(=O)N4Cc5ccccc5C4)(C3)C1)C2 >= 6?
Result :: Not met

Query :: Decide: pIC50 of O=C1CCC(N2C(=O)c3cccc(NCCOCCOCCOCCNC(=O)NC45CC6CC(CC(NCC(=O)N7Cc8ccc(F)cc8C7)(C6)C4)C5)c3C2=O)C(=O)N1 (stereo not drawn) >= 6?
Result :: Met

Query :: Decide: pIC50 of CC(C)(C)OC(=O)NC12CC3CC(CC(NCC(=O)N4Cc5cc(F)c(F)cc5C4)(C3)C1)C2 >= 6?
Result :: Met

Query :: Decide: pIC50 of COc1ccc2c(c1)CN(C(=O)CNC13CC4CC(C1)CC(NC(=O)OC(C)(C)C)(C4)C3)C2 >= 6?
Result :: Not met

Query :: Decide: pIC50 of NC12CC3CC(C1)CC(NCC(=O)N1Cc4ccc(F)cc4C1)(C3)C2 [Compound 47, bis(2,2,2-trifluoroacetate)] >= 6?
Result :: Not met

Query :: Decide: pIC50 of O=C1CCC(N2C(=O)c3cccc(NCCOCCOC(=O)NC45CC6CC(CC(NCC(=O)N7Cc8ccc(F)cc8C7)(C6)C4)C5)c3C2=O)C(=O)N1 (stereo not drawn) >= 6?
Result :: Met

Query :: Decide: pIC50 of CC12CC3CC(C)(C1)CC(NCC(=O)N1Cc4ccc(F)cc4C1)(C3)C2 >= 6?
Result :: Not met

Query :: Decide: pIC50 of O=C(O)CNC(=O)OC12CC3CC(CC(NCC(=O)N4Cc5ccc(F)cc5C4)(C3)C1)C2 >= 6?
Result :: Not met

Query :: Decide: pIC50 of O=C(N[C@H]1CC[C@H](O)CC1)OC12CC3CC(CC(NCC(=O)N4Cc5ccccc5C4)(C3)C1)C2 >= 6?
Result :: Met

Query :: Decide: pIC50 of O=C(CCCCC1SCC2NC(=O)NC21)NCCOCCOCCOCCNC(=O)NC12CC3CC(CC(NCC(=O)N4Cc5ccc(F)cc5C4)(C3)C1)C2 (stereo not drawn) >= 6?
Result :: Met

Query :: Decide: pIC50 of O=C(NCCCC[C@H](NC(=O)OC12CC3CC(CC(NCC(=O)N4Cc5ccccc5C4)(C3)C1)C2)C(=O)O)OCc1ccccc1 >= 6?
Result :: Met

Query :: Decide: pIC50 of O=C1CCC(N2C(=O)c3cccc(NCCOCCNC(=O)NC45CC6CC(CC(NCC(=O)N7Cc8ccc(F)cc8C7)(C6)C4)C5)c3C2=O)C(=O)N1 (stereo not drawn) >= 6?
Result :: Met

Query :: Decide: pIC50 of CC(C)(C)NC(=O)NC12CC3CC(CC(NCC(=O)N4Cc5ccc(F)cc5C4)(C3)C1)C2 >= 6?
Result :: Met
